Data credit: the supplement of paper PMC9732359

assay: protein stability index of a GFP-peptide fusion (yeast GPS) (PSI 1-4); higher = more stable; sorted into four equal gates, so the index is relative within each strain; conditions: pdr5∆
Here the recorded protein stability index is given for each entry.

Inquiry: Record request: protein stability index value, item AFGGSATTGGGLFGNKP [YGL172W/NUP49]
Reply text: 2.7

Inquiry: Consider the sequence YGGSRCANCVKERIVRA [RPL34B] and give its measured protein stability index.
Reply text: 3.38

Inquiry: Recorded protein stability index of EFTLFMDIAERIAVLHQ [YGL172W/NUP49] , please.
Reply text: 2.54

Inquiry: I have this sequence here, QETASPLSQDELISLRK [YIL149C/MLP2] , and I need its recorded protein stability index.
Reply text: 2.22

Inquiry: What does the data say about its protein stability index? Entry: TKTTGKCGSVTVRLIPA [RPS2]
Reply text: 1.7

Others:
Inquiry: If you can, please state the reported protein stability index value of LIDFEYVNDVAIYNNPT [RRI2] .
Reply text: 2.92
